Molecular target: T1, human CD73 on cells (H322, MDA-MB-231, HT-144, T cells, CD73-transfected HEK293T) (human, UniProt P21589 27-549)
T1 construct: whole, on cells; One molecule for endogenous and transfected cell-surface human CD73; the cell line is named under assay or readout; also called CD73 antigen; human CD73 antigen
T1 sequence (looked up): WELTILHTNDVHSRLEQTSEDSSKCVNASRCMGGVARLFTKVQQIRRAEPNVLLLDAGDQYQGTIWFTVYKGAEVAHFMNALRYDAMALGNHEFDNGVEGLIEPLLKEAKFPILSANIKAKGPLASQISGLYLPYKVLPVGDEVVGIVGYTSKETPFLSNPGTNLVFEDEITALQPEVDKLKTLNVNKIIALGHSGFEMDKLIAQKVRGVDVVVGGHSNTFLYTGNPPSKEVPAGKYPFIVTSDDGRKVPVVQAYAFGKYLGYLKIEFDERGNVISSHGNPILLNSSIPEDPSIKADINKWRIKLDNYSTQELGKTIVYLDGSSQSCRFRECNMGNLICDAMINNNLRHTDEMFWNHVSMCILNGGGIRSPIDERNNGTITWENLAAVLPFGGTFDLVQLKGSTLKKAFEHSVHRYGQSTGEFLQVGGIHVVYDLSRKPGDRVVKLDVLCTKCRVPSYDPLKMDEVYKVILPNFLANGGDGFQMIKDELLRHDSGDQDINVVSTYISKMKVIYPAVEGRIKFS
Test: flow cytometry on H322 cells (endogenous CD73), PE channel
Observed property: binding result

002_6_h6 (antibody, V domains shown, Humanized antibody of 002_6_c; also called humanized antibody 002_6_h6) VH: QVQMKESGAEVKKPGASVKVSCKASGYTFTDSNMDWVRQAPGQGLEWMGDINPNNGGTIYNQKFKGRVTMTIDTSTSTVYMELSSLRSEDTAVYYCARTNWDYAMDYWGQGTLVTVSS VL: DIQVTQSPSFLSASVGDRVTITCKASQDINSQLSWYQQKPGKAPKTLIYRANRLIDGVPSRFSGSGSGTDFTLTISSLQYEDMATYYCLQYDVFPRTFGGGTKVEIK | binds
